- Assay System: E. coli DNA gyrase GyrA mutant EcD87A (Escherichia coli, UniProt P0AES4+P0AES6, D87A)
- Measurement Description: Supercoiling inhibition assay, GyrA EcD87A mutant gyrase
Attribute Measured: IC50

molecule="N[C@H]1CCN(c2cc3c(cc2F)n2ncnc2c(=O)n3C2CC2)C1 [t2]" obs_value="1700 nM"
molecule="N[C@H]1CCN(c2cc3c(cc2F)n2ccnc2c(=O)n3C2CC2)C1 [t1]" obs_value="500 nM"

----------
- Assay System: E. coli DNA gyrase GyrA mutant EcD82N (Escherichia coli, UniProt P0AES4+P0AES6, D82N)
- Measurement Description: Supercoiling inhibition assay, GyrA EcD82N mutant gyrase
pIC50: −log10 of the molar value.
Attribute Measured: pIC50

compound="N[C@H]1CCN(c2cc3c(cc2F)n2ccnc2c(=O)n3C2CC2)C1 [t1]" obs_value=5.03

----------
# IC50 annotations
- Assay System: wild-type E. coli DNA gyrase (Escherichia coli, UniProt P0AES4+P0AES6)
- Measurement Description: biochemical
- Measurement Conditions: relaxed pBR322 substrate, read-out: Supercoiling IC50
- Experimental: Supercoiling reactions were carried out as described previously ([24]) with minor adjustments. A total of 500 ng of relaxed pBR322 plasmid was used as a substrate for each 30 μl reaction. The amount of DNA gyrase (A2B2) added was normalized by testing various dilutions of the stock (A2B2 containing 0.5 mg/ml of each subunit) without compound. The amount sufficient to supercoil 50% of the substrate was then used for the testing of compounds. See Supplementary Figure S1 for details. […]
Attribute Measured: IC50 (nM)

molecule="Cn1cc(-c2ccc(NC(=O)Cc3ccc(Cl)cc3)cc2)n2ccnc2c1=O [b2]" attribute_measured=IC50 obs_value=5200
molecule="O=C(Cc1ccccc1)Nc1ccc(-c2cn(-c3ccc(O)cc3)c(=O)c3nccn23)cc1 [b1]" attribute_measured=IC50 obs_value=2600
molecule="N[C@H]1CCN(c2cc3c(cc2F)n2ccnc2c(=O)n3C2CC2)C1 [t1]" attribute_measured=IC50 obs_value=500
molecule="N[C@H]1CCN(c2cc3c(cc2F)n2ncnc2c(=O)n3C2CC2)C1 [t2]" attribute_measured=IC50 obs_value=1700

----------
- Assay System: E. coli DNA gyrase GyrA mutant EcS83L (Escherichia coli, UniProt P0AES4+P0AES6, S83L)
- Measurement Description: Supercoiling inhibition assay, GyrA EcS83L mutant gyrase
- Procedure: Supercoiling reactions were carried out as described previously ([24]) with minor adjustments. A total of 500 ng of relaxed pBR322 plasmid was used as a substrate for each 30 μl reaction. The amount of DNA gyrase (A2B2) added was normalized by testing various dilutions of the stock (A2B2 containing 0.5 mg/ml of each subunit) without compound. The amount sufficient to supercoil 50% of the substrate was then used for the testing of compounds. See Supplementary Figure S1 for details. […]
# IC50 annotations
Attribute Measured: IC50 (µM)

structure_notation=Cn1cc(-c2ccc(NC(=O)Cc3ccc(Cl)cc3)cc2)n2ccnc2c1=O obs_value=11
structure_notation=N[C@H]1CCN(c2cc3c(cc2F)n2ccnc2c(=O)n3C2CC2)C1 obs_value=3.7
structure_notation=N[C@H]1CCN(c2cc3c(cc2F)n2ncnc2c(=O)n3C2CC2)C1 obs_value=9.5
structure_notation=O=C(Cc1ccccc1)Nc1ccc(-c2cn(-c3ccc(O)cc3)c(=O)c3nccn23)cc1 obs_value=1
